Test system: NCI-H1755 (Lung Adenocarcinoma)
testSummary: combination Emax (second highest fraction inhibited in the dose matrix, 72 h); higher = more inhibition; extreme values may be limits of the assay
Tag: condition met if measured combination Emax is not below 0.7, condition not met if it is.

Task: Textbook exercise: given the entry COc1nnc2ccc(N3CCC(c4ccc(OCCN5CCN(C)C(=O)[C@H]5C)cc4)CC3)nn12 [AZD5153] + CCN(CCO)CCCOc1ccc2c(Nc3cc(CC(=O)Nc4cccc(F)c4)[nH]n3)ncnc2c1 [AZD2811] (first compound max 1 µM, 7x7, partner max 1 µM) , state whether its combination Emax is greater than or equal to 0.7.
Result: condition not met

Task: Textbook exercise: given the entry C[C@@H](Nc1cc(F)cc(F)c1)c1cc(C(=O)N(C)C)cc2c(=O)cc(N3CCOCC3)oc12 [AZD8186] + C1CN(CCC1(C(=O)N[C@@H](CCO)C2=CC=C(C=C2)Cl)N)C3=NC=NC4=C3C=CN4 [AZD5363] (first compound max 10 µM, 7x7, partner max 10 µM) , state whether its combination Emax is greater than or equal to 0.7.
Result: condition not met

Task: Textbook exercise: given the entry C[C@@H]1COCCN1c1cc(C2([S@](C)(=N)=O)CC2)nc(-c2ccnc3[nH]ccc23)n1 [AZD6738] + C1CC(C1)(C(=O)[O-])C(=O)[O-].N.N.[Pt+2] [Carboplatin] (first compound max 10 µM, 7x7, partner max 10 µM) , state whether its combination Emax is greater than or equal to 0.7.
Result: condition met

Task: Textbook exercise: given the entry CC1(C)CCC(CN2CCN(c3ccc(C(=O)NS(=O)(=O)c4ccc(NCC5CCOCC5)c([N+](=O)[O-])c4)c(Oc4cnc5[nH]ccc5c4)c3)CC2)=C(c2ccc(Cl)cc2)C1 [Venetoclax] + Cc1cc2ncnn2cc1Nc1ncc2c(n1)n(C1CCOCC1)c(=O)n2C [AZD7648] (first compound max 1 µM, 7x7, partner max 10 µM) , state whether its combination Emax is greater than or equal to 0.7.
Result: condition not met

Task: Textbook exercise: given the entry COc1nnc2ccc(N3CCC(c4ccc(OCCN5CCN(C)C(=O)[C@H]5C)cc4)CC3)nn12 [AZD5153] + C=CCn1c(=O)c2cnc(Nc3ccc(N4CCN(C)CC4)cc3)nc2n1-c1cccc(C(C)(C)O)n1 [AZD1775] (first compound max 1 µM, partner max 1 µM) , state whether its combination Emax is greater than or equal to 0.7.
Result: condition met

---

Tested on: Calu-6 (Non-Small Cell Lung Carcinoma)
testSummary: combination Emax (second highest fraction inhibited in the dose matrix, 72 h); higher = more inhibition; extreme values may be limits of the assay
readoutLabel: combination Emax
Give a plain numeric answer without units written out.

The value of combination Emax measured for the compound COc1nnc2ccc(N3CCC(c4ccc(OCCN5CCN(C)C(=O)[C@H]5C)cc4)CC3)nn12 [AZD5153] + CC1(C)CCC(CN2CCN(c3ccc(C(=O)NS(=O)(=O)c4ccc(NCC5CCOCC5)c([N+](=O)[O-])c4)c(Oc4cnc5[nH]ccc5c4)c3)CC2)=C(c2ccc(Cl)cc2)C1 [Venetoclax] (first compound max 1 µM, 7x7, partner max 1 µM) turned out to be 0.157

The value of combination Emax measured for the compound COc1nnc2ccc(N3CCC(c4ccc(OCCN5CCN(C)C(=O)[C@H]5C)cc4)CC3)nn12 [AZD5153] + C=CCn1c(=O)c2cnc(Nc3ccc(N4CCN(C)CC4)cc3)nc2n1-c1cccc(C(C)(C)O)n1 [AZD1775] (first compound max 1 µM, partner max 1 µM) turned out to be 0.854

The value of combination Emax measured for the compound COc1cc2c(cc1OCCCCCOc1cc3c(cc1OC)C(=O)N1C=C(C)C[C@H]1C=N3)N=C[C@@H]1CC(C)=CN1C2=O [SG3199] + O=C(c1cc(Cc2n[nH]c(=O)c3ccccc23)ccc1F)N1CCN(C(=O)C2CC2)CC1 [Olaparib] (first compound max 0.001 µM, 7x7, partner max 10 µM) turned out to be 0.186

Origin of values: the supplement of paper PMC11061612
